Origin of measurements: BindingDB's records for doi:10.1016/j.ejmech.2019.01.082

Exercise: for every item that follows, state its recorded pIC50.
- ASSAY NAME: Inverse agonist activity at RORgammat in mouse CD4 positive T cells assessed as inhibition of Th17 cell differentiation by measuring IL-17 release after 4 days by cellular staining based flow cytometry
Give bare numbers, as −log10 of the molar value.

// worked examples, pIC50 included
{"columns": ["MOLECULE", "pIC50"],
 "data": [
  ["N#Cc1cccc(C(=O)Nc2ccc3c(c2)C(N2CCN(C(=O)C4CCCC4)CC2)CC3)c1 (centres undefined)", 5.57],
  ["N#Cc1cccc(C(=O)Nc2cccc3c2CCC3N2CCN(C(=O)C3CCCC3)CC2)c1 (centres undefined)", 5.75],
  ["N#Cc1cccc(C(=O)Nc2ccc3c(c2)C(N2CC4CCC(C2)N4C(=O)C2CCCC2)CC3)c1 (centres undefined)", 6.37]
]}

For the next question, use this molecule.
stdin: Any idea what pIC50 was measured for N#Cc1cccc(C(=O)Nc2cccc3c2CCC3N2CC3CCC(C2)N3C(=O)C2CCCC2)c1 (centres undefined) ?
stdout: 6.41
